Entries and their measured self-cleavage follow.
B1: Osa-1-4 twister ribozyme (parent)
chain: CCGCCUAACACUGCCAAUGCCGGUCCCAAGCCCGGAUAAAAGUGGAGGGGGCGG

- Variants of: B1
- procedure-details: self-cleavage, relative activity (ratio to wild type); higher = more cleavage; co-transcriptional
// no unit, no text: just the number

Below, 5 variants whose answers are already recorded.
CCGCCUAACACUGCCAAUGCCGGUCCCAAGCACAGAUAAAAGUGGAGGGGGCGG 0.06
CCGCCUAACACUGCCAAUGCGGGUCCCAAGCCCGGAUAAAAGUGGAGGGGACGG 0.07
CCGCCUACCACUGCCAAUGCCGGUCCCAAGCCCGGAUAAAAGUGGAGGGGACGG 0.06
CCGCCUAACACUGCCAAUGCCGGUCCCAAGCCCGGAUCAAAGUGGAGGGUGCGG 1.04
CCGCCUAACACUGCCAUUGCCGGUUCCAAGCCCGGAUAAAAGUGGAGGGGGCGG 0.93

// field: self-cleavage; key: CCGCCUAACACUGCCAAUGCCGCUCCCAAGCCCGGAUAAAUGUGGAGGGGGCGG ; value = 0.08

Kindly note the recorded self-cleavage for CCGCCUAACACUGCCAAUGCCGGUCCCAAGCCCGGAUACAAGUGGCGGGGGCGG , which is 0.04

Value of self-cleavage reported for the variant CCGCCUAACACUGCCAAUGCCGGUCCUAAGCCCGGAUAAAAGUGGAGGGGGCGC is 0.12

CCGCCUAACACUGCCAAUGCCGGUCCCAAGCCCUGAUAAAAGUGGACGGGGCGG has a reported self-cleavage of 0.05

Briefly, self-cleavage measured for CCGCCUAACACUGCCAAUACCGGCCCCAAGCCCGGAUAAAAGUGGAGGGGGCGG : 0.08

What the record says about CCGCCUAAGACUGCCAAUGCCGGUACCAAGCCCGGAUAAAAGUGGAGGGGGCGG : self-cleavage is 0.08
